MEASUREMENT NOTES: CHI Log D procedure
Type: physicochemical
TEST SETTINGS: pH 7.4, CHI Log D
Catalogue of molecules with associated chromatographic logD
MEASUREMENT KIND: chromatographic logD

| MOLECULE | OBSERVED |
| --- | --- |
| CC(=O)N[C@@H](Cc1ccccc1)C(=O)N[C@@H](CC(=O)O)C(=O)N[C@@H](C)C(=O)N[C@]1(C)CN(C)C(=O)OCC=CCCCCC[C@@](C)(C(=O)N[C@@H](Cc2ccccc2)C(=O)N[C@@H](Cc2c[nH]c3ccccc23)C(=O)N[C@@H](CCC(N)=O)C(N)=O)NC(=O)[C@H](C(C)C)NC(=O)[C@H](Cc2ccccc2)NC(=O)[C@H](C)NC(=O)[C@H](C)NC(=O)[C@H](CC(=O)O)NC(=O)[C@H](CC(=O)O)NC1=O (single isomer, unassigned) | 1.21 |
| CC(=O)N1CCC[C@]12CC=CCCCC1(CCCC=CCOC(=O)N(C)CC[C@@](C)(C(=O)N[C@@H](Cc3ccccc3)C(=O)N[C@@H](Cc3c[nH]c4ccccc34)C(=O)N[C@@H](CCC(N)=O)C(N)=O)NC(=O)[C@H](C(C)C)NC(=O)[C@H](Cc3ccccc3)NC(=O)[C@H](C)NC(=O)[C@H](C)NC(=O)[C@H](CC(=O)O)NC(=O)[C@H](CC(=O)O)NC1=O)NC(=O)[C@H](C)NC(=O)[C@H](CC(=O)O)NC2=O (some centres unmarked) | 1.35 |
| CC(=O)N1CCC[C@]12CC=CCCCC1(CCCC=CCCCCCC[C@@](C)(C(=O)N[C@@H](Cc3ccccc3Cl)C(=O)N[C@@H](Cc3csc4ccccc34)C(=O)N[C@@H](CCO)C(N)=O)NC(=O)[C@H](CC(C)C)NC(=O)[C@H](Cc3ccccc3)NC(=O)[C@H](C)NC(=O)[C@H](C)NC(=O)[C@H](CN(CC(=O)O)CC(F)(F)F)NC(=O)[C@H](CC(=O)O)NC1=O)NC(=O)[C@H](CC(C)(C)C)NC(=O)[C@H](CC(=O)O)NC2=O (some centres unmarked) | 3.42 |
| CC[C@H](C)[C@H](NC(=O)[C@H](CC(=O)O)NC(=O)[C@H](C)NC(C)=O)C(=O)N[C@]1(C)CCN(C)C(=O)OCC=CCCCCC[C@@](C)(C(=O)N[C@@H](Cc2ccccc2)C(=O)N[C@@H](Cc2c[nH]c3ccccc23)C(=O)N[C@@H](Cc2c[nH]cn2)C(N)=O)NC(=O)[C@H](CCC(N)=O)NC(=O)[C@H](Cc2ccccc2)NC(=O)[C@H](C)NC(=O)[C@H](C)NC(=O)[C@H](CCC(C)C)NC(=O)[C@H](CC(=O)O)NC1=O (single isomer, unassigned) | 1.61 |
| CC[C@H](C)[C@@H]1NC(=O)[C@H](CC(=O)O)NC(=O)[C@]2(CC=CCCCC3(CCCC=CCCCCCC[C@@](C)(C(=O)N[C@@H](Cc4ccccc4C(N)=O)C(=O)N[C@@H](Cc4csc5ccccc45)C(=O)N[C@@H](Cc4c[nH]cn4)C(N)=O)NC(=O)[C@H](CC(N)=O)NC(=O)[C@H](Cc4ccccc4)NC(=O)[C@H](C)NC(=O)[C@H](C)NC(=O)[C@H](CCC(=O)O)NC(=O)[C@H](CC(=O)O)NC3=O)NC1=O)CCCN2C(C)=O (some centres unmarked) | 1.91 |

# credit: patent US20240116985A1
